Tested on: Plasmodium falciparum
Test: MMV: Measure of pLDH activity as indication of parasite viability. Gametocytogenesis of 3D7 Plasmodium falciparum strain was induced in vitro and asexual parasites were depleted with N-acetylglucosamine. Gametocytes were treated with dihydroartemisinin, epoxomicin, methylene blue, primaquine, puromycin or chloroquine in 96-well plates and the pLDH activity was evaluated using a modified Makler protocol. Mosquito infectivity was measured by the standard membrane feeding assay.
Assay type: functional
Design: concentration or dose not given beside the values

[
  {
    "COMPOUND": "O=C(NC(c1ccccc1)c1ccc2cccnc2c1O)c1ccccc1 (stereo not drawn)",
    "TESTED_TARGET": "Plasmodium falciparum",
    "MEASUREMENT_UNIT": "%",
    "Growth Inhibition": 59.5194
  },
  {
    "COMPOUND": "COc1cc(C(=O)Nc2nc3c(cc4c5c(cccc53)CC4)s2)cc(OC)c1OC",
    "TESTED_TARGET": "Plasmodium falciparum",
    "MEASUREMENT_UNIT": "%",
    "Growth Inhibition": 2.6754
  },
  {
    "COMPOUND": "COc1ccc2c(c1OC)C(=O)N1c3ccccc3N=C(c3ccc(C)cc3)CC21 (stereo not drawn)",
    "TESTED_TARGET": "Plasmodium falciparum",
    "MEASUREMENT_UNIT": "%",
    "Growth Inhibition": 14.488
  },
  {
    "COMPOUND": "O=C(Nc1ccccc1O)c1ccc(-c2ccc(Cl)cc2Cl)o1",
    "TESTED_TARGET": "Plasmodium falciparum",
    "MEASUREMENT_UNIT": "%",
    "Growth Inhibition": 15.81
  },
  {
    "COMPOUND": "Cc1cccc(N2C(=O)C3C(C2=O)C2(c4ccccc4)C(=O)C3(c3ccccc3)C(c3ccc4c(c3)OCO4)=C2c2ccc3c(c2)OCO3)c1 (stereo not drawn)",
    "TESTED_TARGET": "Plasmodium falciparum",
    "MEASUREMENT_UNIT": "%",
    "Growth Inhibition": 6.488
  },
  {
    "COMPOUND": "COc1ccc(CCNC(=O)c2cc(S(=O)(=O)N3CC(C)CC(C)C3)ccc2Sc2ccc(F)cc2)cc1OC (stereo not drawn)",
    "TESTED_TARGET": "Plasmodium falciparum",
    "MEASUREMENT_UNIT": "%",
    "Growth Inhibition": 10.1532
  },
  {
    "COMPOUND": "COc1cc2c3cc1Oc1c(OC)c(OC)cc4c1C(Cc1ccc(O)c(c1)Oc1ccc(cc1)CC3N(C)CC2)N(C)CC4.Cl (stereo not drawn)",
    "TESTED_TARGET": "Plasmodium falciparum",
    "MEASUREMENT_UNIT": "%",
    "Growth Inhibition": 37.697
  },
  {
    "COMPOUND": "O=C(Nc1cccc(-c2nc3ccccc3[nH]2)c1)c1cccc(NC(=O)c2ccco2)c1",
    "TESTED_TARGET": "Plasmodium falciparum",
    "MEASUREMENT_UNIT": "%",
    "Growth Inhibition": 6.1984
  }
]
